Molecular target: AKT-1 (Homo sapiens, UniProt P31749)
Sequence (P31749 whole entry): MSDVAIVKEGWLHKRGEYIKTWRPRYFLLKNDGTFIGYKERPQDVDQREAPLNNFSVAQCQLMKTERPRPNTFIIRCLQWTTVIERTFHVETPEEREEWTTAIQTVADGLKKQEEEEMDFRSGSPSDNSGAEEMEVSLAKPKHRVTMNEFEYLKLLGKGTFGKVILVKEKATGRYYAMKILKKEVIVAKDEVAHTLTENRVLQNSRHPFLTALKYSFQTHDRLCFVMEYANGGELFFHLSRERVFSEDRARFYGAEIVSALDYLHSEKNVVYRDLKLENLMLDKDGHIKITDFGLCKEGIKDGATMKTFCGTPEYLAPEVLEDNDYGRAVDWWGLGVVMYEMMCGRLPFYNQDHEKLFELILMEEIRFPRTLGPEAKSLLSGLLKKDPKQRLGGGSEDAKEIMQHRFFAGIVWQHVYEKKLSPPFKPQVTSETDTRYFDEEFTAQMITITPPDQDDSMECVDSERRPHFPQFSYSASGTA
Assay: Akt kinase activity assay kit on cell lysate
Conditions: LY2780301 as reference
RESULT_TYPE: IC50 (µM)

>  <COMPOUND>
CCOC(=O)c1c(NC(=S)Nc2cc(C)ccc2Cl)sc2c1N(C)CC2 [4c]

>  <ASSAY_TARGET>
AKT-1 (Homo sapiens, UniProt P31749)

>  <IC50 [µM]>
4.6

$$$$

(a) CN(C)CCn1cc(-c2ccc(F)c(C(F)(F)F)c2)nc1C1CCN(c2ncnc3c2CC(=O)N3)CC1 [LY2780301, reference compound]
(b) CN1CCc2sc3nc(-c4ccc(Cl)cc4)[nH]c(=O)c3c21 [3b]
Of the two listed items, which has the higher IC50? First: a Second: b State the label of the item chosen.
b
(b: 6.96 µM, a: 4.62 µM)

* * *

Target: VEGFR-2 (Homo sapiens)
Sequence (P35968 20-1356): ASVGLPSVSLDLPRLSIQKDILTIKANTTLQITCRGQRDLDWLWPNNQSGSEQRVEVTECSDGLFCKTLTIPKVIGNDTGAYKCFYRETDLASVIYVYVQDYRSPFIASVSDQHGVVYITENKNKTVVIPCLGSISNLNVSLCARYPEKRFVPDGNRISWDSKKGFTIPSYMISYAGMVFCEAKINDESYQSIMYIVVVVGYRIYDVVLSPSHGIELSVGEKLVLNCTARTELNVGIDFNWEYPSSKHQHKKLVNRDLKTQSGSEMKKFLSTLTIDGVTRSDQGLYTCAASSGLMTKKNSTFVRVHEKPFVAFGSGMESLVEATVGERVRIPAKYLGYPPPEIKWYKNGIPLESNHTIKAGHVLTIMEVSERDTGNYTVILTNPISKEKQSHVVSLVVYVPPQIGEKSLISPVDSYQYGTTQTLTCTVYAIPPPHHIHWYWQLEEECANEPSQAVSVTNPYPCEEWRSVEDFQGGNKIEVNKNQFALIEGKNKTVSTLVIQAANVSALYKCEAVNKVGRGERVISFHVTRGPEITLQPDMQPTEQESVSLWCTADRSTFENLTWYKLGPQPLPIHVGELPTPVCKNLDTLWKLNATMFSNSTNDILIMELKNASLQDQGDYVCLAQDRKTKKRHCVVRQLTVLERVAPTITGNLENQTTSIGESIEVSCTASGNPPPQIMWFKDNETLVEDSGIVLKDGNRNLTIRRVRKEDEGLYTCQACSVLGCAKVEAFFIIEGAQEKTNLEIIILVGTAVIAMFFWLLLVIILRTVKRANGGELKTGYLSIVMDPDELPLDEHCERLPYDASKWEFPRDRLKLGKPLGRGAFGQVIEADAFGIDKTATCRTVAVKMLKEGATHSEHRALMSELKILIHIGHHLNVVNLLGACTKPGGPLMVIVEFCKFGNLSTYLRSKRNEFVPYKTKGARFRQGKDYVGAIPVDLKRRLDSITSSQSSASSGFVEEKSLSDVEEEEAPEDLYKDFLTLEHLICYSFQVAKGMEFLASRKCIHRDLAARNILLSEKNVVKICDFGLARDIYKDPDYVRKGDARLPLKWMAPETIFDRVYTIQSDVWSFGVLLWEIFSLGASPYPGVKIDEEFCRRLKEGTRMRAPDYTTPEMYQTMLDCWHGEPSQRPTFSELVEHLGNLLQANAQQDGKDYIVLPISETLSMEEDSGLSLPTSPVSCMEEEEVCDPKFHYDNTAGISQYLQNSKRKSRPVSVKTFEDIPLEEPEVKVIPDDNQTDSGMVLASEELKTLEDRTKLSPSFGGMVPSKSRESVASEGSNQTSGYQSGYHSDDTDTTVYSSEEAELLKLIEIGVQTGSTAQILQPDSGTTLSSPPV
RESULT_TYPE: pIC50
pIC50 (log units): -log10 of the concentration in mol/L.

Summary: CCOC(=O)c1c(NC(=S)Nc2cc(C)ccc2Cl)sc2c1N(C)CC2 , VEGFR-2 (Homo sapiens), pIC50 = 7.12

* * *

Consider the following compounds and their measured melting point readings.

Below, 4 compounds whose answers are already recorded.
>  <RECORD_SMILES>
CCOC(=O)c1c(NC(=S)NC)sc2c1N(C)CC2

>  <melting point>
132 to 134 °C

$$$$
>  <RECORD_SMILES>
COc1ccc(-c2nc3sc4c(c3c(=O)[nH]2)N(C)CC4)cc1

>  <melting point>
117 to 118 °C

$$$$
>  <RECORD_SMILES>
Cc1ccc(-c2nc3sc4c(c3c(=O)[nH]2)N(C)CC4)cc1

>  <melting point>
155 to 156 °C

$$$$
>  <RECORD_SMILES>
CN1CCc2sc3nc(-c4ccc(F)cc4)[nH]c(=O)c3c21

>  <melting point>
108 to 110 °C

$$$$

Would you kindly look at the next entry?
compound CN1CCc2sc3nc(-c4ccc(Cl)cc4)[nH]c(=O)c3c21 , melting point observed: 168 °C

* * *

RESULT_TYPE: melting point

>  <MOLECULE>
CCOC(=O)c1c(/N=C(/Nc2cc(C)ccc2Cl)SCC(=O)Nc2ccc(C)cc2)sc2c1N(C)CC2 [7d]

>  <REPORTED_VALUE>
118 to 120 °C

$$$$
>  <MOLECULE>
CCOC(=O)c1c(/N=C(/Nc2cc(C)ccc2Cl)SCC(=O)Nc2ccc(OC)cc2)sc2c1N(C)CC2 [7c]

>  <REPORTED_VALUE>
110 to 112 °C

$$$$

molecule CN1CCc2sc3nc(-c4ccc(Br)cc4)[nH]c(=O)c3c21 [3c] , melting point observed: 113 to 114 °C

* * *

Consider the following compounds and their measured IC50 readings.
Test system: PC-3 cells
Assay: MTT antiproliferative assay on PC-3
Type: cell-based
Settings: Homo sapiens, PC-3, MTT assay; mean ± S.D. (n = 3); read-out: Cytotoxicity in IC50, PC-3
Give the quantity in µM, number only.

>  <COMPOUND>
CCOC(=O)c1c(/N=C(/Nc2cc(C)ccc2Cl)SCC(=O)Nc2ccc(C)cc2)sc2c1N(C)CC2

>  <ASSAY_TARGET>
PC-3 cells

>  <RESULT_TYPE>
IC50

>  <DISPLAY_UNIT>
µM

>  <REPORTED_VALUE>
6.35

$$$$
>  <COMPOUND>
COc1ccc(-c2nc3sc4c(c3c(=O)[nH]2)N(C)CC4)cc1

>  <ASSAY_TARGET>
PC-3 cells

>  <RESULT_TYPE>
IC50

>  <DISPLAY_UNIT>
µM

>  <REPORTED_VALUE>
7.47

$$$$
>  <COMPOUND>
CCOC(=O)c1c(/N=C(/Nc2cc(C)ccc2Cl)SCC(=O)Nc2ccc(Br)cc2)sc2c1N(C)CC2

>  <ASSAY_TARGET>
PC-3 cells

>  <RESULT_TYPE>
IC50

>  <DISPLAY_UNIT>
µM

>  <REPORTED_VALUE>
26.6

$$$$
>  <COMPOUND>
CN1CCc2sc3nc(-c4ccc(F)cc4)[nH]c(=O)c3c21

>  <ASSAY_TARGET>
PC-3 cells

>  <RESULT_TYPE>
IC50

>  <DISPLAY_UNIT>
µM

>  <REPORTED_VALUE>
19

$$$$
>  <COMPOUND>
Cc1ccc(-c2nc3sc4c(c3c(=O)[nH]2)N(C)CC4)cc1

>  <ASSAY_TARGET>
PC-3 cells

>  <RESULT_TYPE>
IC50

>  <DISPLAY_UNIT>
µM

>  <REPORTED_VALUE>
39.7

$$$$

compound CCOC(=O)c1c(/N=C(/Nc2cc(C)ccc2Cl)SCC(=O)Nc2ccc(Cl)cc2)sc2c1N(C)CC2 , IC50 observed: 81.1

compound COc1cccc2c1C(=O)c1c(O)c3c(c(O)c1C2=O)C[C@@](O)(C(=O)CO)C[C@@H]3O[C@H]1C[C@H](N)[C@H](O)[C@H](C)O1 [Doxorubicin, reference compound] , IC50 observed: 2.53

compound CCNC(=S)Nc1sc2c(c1C(=O)OCC)N(C)CC2 , IC50 observed: 19.3

compound COc1cc(-c2nc3sc4c(c3c(=O)[nH]2)N(C)CC4)cc(OC)c1OC , IC50 observed: 20.5

compound CCOC(=O)c1c(NC(=S)NC)sc2c1N(C)CC2 , IC50 observed: 1.84

compound CN1CCc2sc3nc(-c4ccc(Cl)cc4)[nH]c(=O)c3c21 , IC50 observed: 2.15

compound CN1CCc2sc3nc(-c4ccccc4)[nH]c(=O)c3c21 , IC50 observed: 29.6

compound CCOC(=O)c1c(/N=C(/NC)SCC(=O)Nc2ccc(Cl)cc2)sc2c1N(C)CC2 , IC50 observed: 0.5

compound CCOC(=O)c1c(/N=C(/Nc2cc(C)ccc2Cl)SCC(=O)Nc2ccc(OC)cc2)sc2c1N(C)CC2 , IC50 observed: 9.72

compound CCOC(=O)c1c(NC(=S)Nc2cc(C)ccc2Cl)sc2c1N(C)CC2 , IC50 observed: 3.12

compound CN1CCc2sc3nc(-c4ccc(Br)cc4)[nH]c(=O)c3c21 , IC50 observed: 10.5
